Tested on: HCT-116
Test: Effect on ATP homeostasis in human HCT116 cells assessed as reduction in ATP level at 0.5 to 2 uM after 3 hrs in glucose supplemented media by ATP bioluminescent assay
Format: ADME, cell-based
Conditions: hct-116, 3 h
OBSERVED PROPERTY: Activity

O=[N+]([O-])c1ccc2nc(-c3cc(Cl)cc(Cl)c3O)[nH]c2c1 : Toxic
O=C(Nc1ccc([N+](=O)[O-])cc1Cl)c1cc(Cl)ccc1O [NICLOSAMIDE] : Toxic
Cc1ccc(O)c(-c2nc3cc([N+](=O)[O-])ccc3[nH]2)c1 : Non-Toxic
Oc1ccc(Cl)cc1-c1nc2cc(C(F)(F)F)ccc2[nH]1 : Non-Toxic
O=[N+]([O-])c1ccc2[nH]c(-c3cc(F)ccc3O)nc2c1 : Non-Toxic

Query string: Form field - read-out: Activity; system: HCT-116; submitted item: O=[N+]([O-])c1ccc2[nH]c(-c3cc(Cl)ccc3O)nc2c1
Result string: Non-Toxic

====

Species: Homo sapiens
Test: Inhibition of Wnt/beta-catenin signaling in human U2OS cells expressing GFP-fused Fzd1 assessed as GFP-Fzd1 internalization by measuring number of punctate formed at 12.5 uM after 6 hrs by confocal microscopic method
Format: cell-based
OBSERVED PROPERTY: Activity
The answer should be written as a number, with no unit following it.

Solved entries (count: 3):
Cc1ccc(S(=O)(=O)Nc2ccc(Cl)cc2-c2nc3cc(C(F)(F)F)ccc3[nH]2)cc1 : 0
CS(=O)(=O)Nc1ccccc1-c1nc2cc([N+](=O)[O-])ccc2[nH]1 : 0
COc1ccc2[nH]c(-c3cc(Cl)ccc3O)nc2c1 : 0

Query string: May I ask what Activity has been recorded for Oc1ccc(Cl)cc1-c1nc2ccccc2[nH]1 ?
Result string: 0

====

Below is a list of entries, each paired with its recorded inhibition value.
Organism: Homo sapiens
Assay: Inhibition of Wnt/beta-catenin signaling (unknown origin) expressed in HEK293 cells assessed as inhibition of Wnt3A-stimulated beta-catenin response transcription at 10 uM after 6 hrs by TOPflash dual luciferase reporter gene assay relative to control
Format: cell-based
// note: answer is a bare numeric in %

Solved entries (count: 2):
Cc1ccc(S(=O)(=O)Nc2ccccc2-c2nc3cc(C(F)(F)F)ccc3[nH]2)cc1 : 57
O=S(=O)(Nc1ccccc1-c1nc2cc(C(F)(F)F)ccc2[nH]1)c1c(F)cccc1F : 8

Query string: May I ask what inhibition has been recorded for CS(=O)(=O)Nc1ccccc1-c1nc2cc([N+](=O)[O-])ccc2[nH]1 ?
Result string: 50

Query string: Cc1ccc(S(=O)(=O)Nc2ccccc2-c2nc3cc([N+](=O)[O-])ccc3[nH]2)cc1 , same question.
Result string: 53

Query string: O=[N+]([O-])c1ccc2[nH]c(-c3ccccc3NS(=O)(=O)c3c(F)cccc3F)nc2c1 , same question.
Result string: 15

Query string: Cc1ccc(S(=O)(=O)Nc2ccc(Cl)cc2-c2nc3cc([N+](=O)[O-])ccc3[nH]2)cc1 , same question.
Result string: 48

Query string: CS(=O)(=O)Nc1ccccc1-c1nc2cc(C(F)(F)F)ccc2[nH]1 , same question.
Result string: 74

====

Species on record: Homo sapiens
Assay: Inhibition of Wnt/beta-catenin signaling in human U2OS cells expressing GFP-fused Fzd1 assessed as GFP-Fzd1 internalization by measuring number of punctate formed at 12.5 uM after 6 hrs by confocal microscopic method
Type: cell-based
Below is a list of entries, each paired with its recorded Activity value.
The answer should be written as a number, with no unit following it.

COc1ccc(O)c(-c2nc3cc([N+](=O)[O-])ccc3[nH]2)c1 : 0
CS(=O)(=O)Nc1ccccc1-c1nc2cc(C(F)(F)F)ccc2[nH]1 : 0
Oc1ccc(Cl)cc1-c1nc2cc(C(F)(F)F)ccc2[nH]1 : 3

Query string: May I ask what Activity has been recorded for O=C(Nc1ccc([N+](=O)[O-])cc1Cl)c1cc(Cl)ccc1O [NICLOSAMIDE] ?
Result string: 5

Query string: Cc1ccc(S(=O)(=O)Nc2ccc(Cl)cc2-c2nc3cc([N+](=O)[O-])ccc3[nH]2)cc1 , same question.
Result string: 0

Query string: Cc1ccc(S(=O)(=O)Nc2ccc(Cl)cc2C(=O)Nc2ccc([N+](=O)[O-])cc2Cl)cc1 , same question.
Result string: 3

Query string: O=[N+]([O-])c1ccc2nc(-c3cc(Cl)ccc3O)[nH]c2c1 , same question.
Result string: 3

Query string: O=S(=O)(Nc1ccccc1-c1nc2cc(C(F)(F)F)ccc2[nH]1)c1c(F)cccc1F , same question.
Result string: 0

Query string: Oc1ccc(Cl)cc1-c1nc2cc(F)ccc2[nH]1 , same question.
Result string: 0

Query string: Cc1ccc(S(=O)(=O)Nc2ccccc2-c2nc3cc([N+](=O)[O-])ccc3[nH]2)cc1 , same question.
Result string: 0

Query string: O=[N+]([O-])c1ccc2[nH]c(-c3cc(F)ccc3O)nc2c1 , same question.
Result string: 2

Query string: Cc1ccc(O)c(-c2nc3cc([N+](=O)[O-])ccc3[nH]2)c1 , same question.
Result string: 0

Query string: O=[N+]([O-])c1ccc2nc(-c3ccccc3O)[nH]c2c1 , same question.
Result string: 0

Query string: Cc1ccc(S(=O)(=O)Nc2ccccc2-c2nc3cc(C(F)(F)F)ccc3[nH]2)cc1 , same question.
Result string: 0

Query string: O=[N+]([O-])c1ccc2[nH]c(-c3ccccc3NS(=O)(=O)c3c(F)cccc3F)nc2c1 , same question.
Result string: 0

Query string: O=[N+]([O-])c1ccc2nc(-c3cc(Cl)cc(Cl)c3O)[nH]c2c1 , same question.
Result string: 2
